The reported numbers originate from patent US20220073643A1.

Target: human Claudin18.2 (human)
Test: cell-based or functional assay
Recorded CDC EC50 by entry
Report the value in µg/mL with no unit label.

Some binders with known CDC EC50 results, for comparison:
1) 407E11H8 (antibody, V domains shown) VH: DVQLVESGGGLVQPGGSRKLSCAASGFTFSDFGMHWIRQTPEKGLEWVAYISSGSRPIYYADTVKGRFTISRDNPKNTLFLQMTSLRSEDTAMYFCVRFYFGNSFDHWGQGTLVTVSA VL: DIVMTQSPSFLTVTAGEKVTMTCRSSQNLLNSGNLKNYLTWYQQKPGQPPKLLISWASTRESGVPDRFTGSGSGTDFTLTISSVQPEDLALYYCQNAYSFPLTFGAGTKLELK: 4.32
2) 201F4H6 (antibody, V domains shown) VH: QVQLKESGPGLVAPSQSLSITCTVSGFSLTSYGVSWVRQPPGKGLECLGVIWAGGNTNYNSALMSRLSISKDKSKSQVFLKMNSLQTDDTAMYYCARVYYGNAMDYWGQGTSVTVSS VL: DIVMTQSPSSLTVTAGEKVTMSCKSSQSLLNSGNQKSYLTWYQQRPGQPPKLLIYWASTRESGVPDRFTGSGSGTDFTLTISSVQAEDLAVYFCQNVYFFPFTFGSGTKLETK: 1.42

Could you share which CDC EC50 value was measured for 232D7C8 (antibody, V domains shown) VH: QAYLQQSGAELVRSGASVKMSCKASGYTFTSHNMHWVKQTPGQGLEWIGYIYPGNGGTNYNQKFKGKATLTADTSSSTAYMQISSLTSEDSAVYFCARDYFGNSFAYWGQGTLVTVSA VL: DILMTQSPSSLTATAGEKVSMSCKSSQSLFNSGNQRNYLTWYQQRPGQPPKLLIYWASTRESGVPDRFTGSGSGTDFTLTISSVQAEDLAVYYCQNDYRYPFTFGAGTKLELK ? 1.46
